Test: Displacement of [3H]flumazenil form benzodiazepine-binding site of GABA(A) receptor in rat cortical membrane after 30 mins by glass fiber filtration assay
Type: cell membranes
Settings: in the assay text read “after 40 mins” for “after 30 mins”
observedProperty: Ki (nM)

[
  {
    "chemicalSmiles": "Cc1ccc(-n2nc3c4cc(CCc5ccc(Oc6ccccc6)cc5)ccc4[nH]c(=O)n3c2=O)cc1",
    "Ki, nM": 123
  }
]

1 = O=c1[nH]c2ccc(Br)cc2c2nn(-c3ccc(Cl)cc3)c(=O)n12
2 = Cc1ccc(-n2nc3c4cc(CCc5cccnc5)ccc4[nH]c(=O)n3c2=O)cc1
3 = Cc1ccc(-n2nc3c4cc(C#Cc5ccccc5)ccc4[nH]c(=O)n3c2=O)cc1
### Prompt Rank entries according to their Ki, from the largest number down. Put the labels in the order asked and list them.
### Response 3, 1, 2
(3: 40 nM, 1: 0.6 nM, 2: 0.2 nM)

A = Cc1ccc(-n2nc3c4cc(Br)ccc4[nH]c(=O)n3c2=O)cc1
B = Cc1ccc(-n2nc3c4cc(Cc5ccccc5)ccc4[nH]c(=O)n3c2=O)cc1
### Prompt Please indicate which item has the smaller measured Ki: A versus B Record your answer as the label of the chosen record.
### Response A
(A: 0.47 nM, B: 1 nM)
